Origin of the recorded values: ChEMBL document CHEMBL4152355

Test: Inhibition of Cu2+ induced amyloid beta (1 to 40) fibril aggregation assessed as aggregation level at 100 uM measured on day 3 by UV-visible turbidity method (reference value: 100 +/- 17.24%)
Set-up: scale not given: the % may be the effect or the level left
Consider the following compounds; for each one, report its Activity.
Hi! Could you send only the number? It should be in %, unit omitted.

Task: Entry under review: `Cl.Oc1ccc(/C=N/CCNCCn2cnc3ccccc32)c(O)c1` . Reported Activity?
Result: 328

Task: Give the measured Activity of `O=C(NCCNc1ccnc2cc(Cl)ccc12)c1cnccn1` .
Result: 124

Task: What value of measured Activity is listed for `Oc1ccc(/C=N/CCn2ccc3ccccc32)c(O)c1` ?
Result: 722

Task: What value of Activity has been recorded for this entry: `Oc1ccc(/C=N/CCn2ccc3cccnc32)c(O)c1`
Result: 673

Task: Please give the measured Activity for this compound: `Cl.Nc1ncnc2c1ncn2CCNCC/N=C/c1ccc(O)cc1O`
Result: 299

Task: I would be grateful if you could share the reported Activity for Oc1ccc(/C=C/c2cc(O)cc(O)c2)cc1 [RESVERATROL] .
Result: 222

Task: Any idea what Activity was measured for `Oc1ccccc1/C=N/CCNc1ccnc2cc(Cl)ccc12` ?
Result: 410

* * *

Experiment: Inhibition of Cu2+ induced amyloid beta (1 to 40) fibril aggregation assessed as fluorescence emission at 100 uM measured on day 10 by thioflavin-T based assay (reference value: 412.11 +/- 35.93)
PARAMETER MEASURED: Flu intensity
Output spec: single numeric token, no unit.

Task: # query: Flu intensity of entry `Oc1ccc(/C=N/CCn2ccc3ccccc32)c(O)c1`
Result: 155

Task: // lookup Flu intensity for `O=C(NCCNc1ccnc2cc(Cl)ccc12)c1cnccn1`
Result: 195

Task: Which Flu intensity value is on record for `Cl.Nc1ncnc2c1ncn2CCNCC/N=C/c1ccc(O)cc1O` ?
Result: 135

Task: So what's the measured Flu intensity for this one? `Oc1ccc(/C=N/CCn2ccc3cccnc32)c(O)c1`
Result: 185

Task: I am curious: what Flu intensity value has been reported for `Oc1ccccc1/C=N/CCNc1ccnc2cc(Cl)ccc12` ?
Result: 161

Task: Fill blank: measured Flu intensity of the molecule `Cl.Oc1ccc(/C=N/CCNCCn2cnc3ccccc32)c(O)c1` is ____.
Result: 95

Task: For Oc1ccc(/C=C/c2cc(O)cc(O)c2)cc1 [RESVERATROL] , what is its reported Flu intensity?
Result: 27.3

* * *

Experiment: Disaggregation of Cu2+ induced amyloid beta (1 to 40) preformed fibrils assessed as fluorescence emission at 100 uM after 4 days by thioflavin-T based assay (reference value: 178.07 +/- 17.24)
PARAMETER MEASURED: Flu intensity

Task: For the compound shown here, `O=C(NCCNc1ccnc2cc(Cl)ccc12)c1cnccn1` , give the reported Flu intensity.
Result: 109

Task: What measured Flu intensity goes with `Oc1ccccc1/C=N/CCNc1ccnc2cc(Cl)ccc12` ?
Result: 97

Task: Given the entry `Cl.Nc1ncnc2c1ncn2CCNCC/N=C/c1ccc(O)cc1O` , report its measured Flu intensity.
Result: 60.9

Task: Recorded Flu intensity of `Oc1ccc(/C=N/CCn2ccc3ccccc32)c(O)c1` , please.
Result: 73

Task: Consider the compound `Oc1ccc(/C=N/CCn2ccc3cccnc32)c(O)c1` and give its measured Flu intensity.
Result: 106

Task: I'd like to know its Flu intensity. The compound in question is `Oc1ccc(/C=C/c2cc(O)cc(O)c2)cc1`
Result: 29.8

Task: Could you share which Flu intensity value was measured for `Cl.Oc1ccc(/C=N/CCNCCn2cnc3ccccc32)c(O)c1` ?
Result: 60.4
